- measurement.target: TBK1 (Homo sapiens, UniProt Q9UHD2)
- Construct: purchased Eurofins Pharma Discovery Services (KinaseProfiler; Cerep BioPrint panel)
- Sequence (Q9UHD2 1-729): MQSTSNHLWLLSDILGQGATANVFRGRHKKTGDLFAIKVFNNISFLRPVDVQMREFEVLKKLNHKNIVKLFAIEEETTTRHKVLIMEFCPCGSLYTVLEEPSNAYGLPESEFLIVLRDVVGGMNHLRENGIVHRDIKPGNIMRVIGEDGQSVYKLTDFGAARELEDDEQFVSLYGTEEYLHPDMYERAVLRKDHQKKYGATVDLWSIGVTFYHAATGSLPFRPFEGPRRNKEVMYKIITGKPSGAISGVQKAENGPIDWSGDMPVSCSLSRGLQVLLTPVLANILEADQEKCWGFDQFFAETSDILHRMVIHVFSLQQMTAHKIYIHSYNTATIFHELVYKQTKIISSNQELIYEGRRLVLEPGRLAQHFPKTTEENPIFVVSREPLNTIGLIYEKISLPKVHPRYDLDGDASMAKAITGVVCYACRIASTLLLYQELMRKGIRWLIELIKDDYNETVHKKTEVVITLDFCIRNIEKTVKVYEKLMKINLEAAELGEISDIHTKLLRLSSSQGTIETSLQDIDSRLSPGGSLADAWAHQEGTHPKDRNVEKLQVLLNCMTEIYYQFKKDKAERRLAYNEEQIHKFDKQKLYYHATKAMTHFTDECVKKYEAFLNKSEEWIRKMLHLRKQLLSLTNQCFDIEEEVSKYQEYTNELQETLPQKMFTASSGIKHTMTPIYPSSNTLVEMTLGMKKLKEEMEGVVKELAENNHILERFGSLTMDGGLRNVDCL
- assay.remarks: kinase selectivity panel
- Assay type: biochemical
- measurement.context: read-out: percentage of control activity (POC), TBK1
- Experimental: Kinase selectivity was evaluated at Eurofins Pharma Discovery Services using a selection of 125 representative kinases tested at a concentration of 10 μM in duplicate (S3 Table). IC50 values for selected activities were further characterized at 9 duplicate concentrations. DNA-PK activity was determined at the SelectScreen® Biochemical kinase Profiling Service of Thermo Fisher Scientific.
Param label: returns yes when remaining activity at 10 µM < 90%, returns no otherwise, including exact equality.

molecule: COc1c(NC(=O)c2ccc(C)c(-c3nnc4c(NCC(C)(C)C)nccn34)c2)cc(C(C)(C)C)cc1NS(C)(=O)=O [compound 7, reference compound]
assigned.label: no
//
molecule: CC(C)(C)N1CCC(c2cc(-c3ccc(F)cc3Cl)c3cc[n+]([O-])c(-c4c(Cl)cccc4Cl)c3n2)CC1
assigned.label: no
//
molecule: CS(=O)(=O)N1CCN(c2ccc(Nc3ncc(C(N)=O)c(NC4CC4)n3)cc2)CC1
assigned.label: yes

====

This section presents compounds with their documented remaining activity at 10 µM values.
- measurement.target: SAPK2a (Homo sapiens)
- Construct: purchased Eurofins Pharma Discovery Services (KinaseProfiler; Cerep BioPrint panel)
- Sequence (Q16539 whole entry): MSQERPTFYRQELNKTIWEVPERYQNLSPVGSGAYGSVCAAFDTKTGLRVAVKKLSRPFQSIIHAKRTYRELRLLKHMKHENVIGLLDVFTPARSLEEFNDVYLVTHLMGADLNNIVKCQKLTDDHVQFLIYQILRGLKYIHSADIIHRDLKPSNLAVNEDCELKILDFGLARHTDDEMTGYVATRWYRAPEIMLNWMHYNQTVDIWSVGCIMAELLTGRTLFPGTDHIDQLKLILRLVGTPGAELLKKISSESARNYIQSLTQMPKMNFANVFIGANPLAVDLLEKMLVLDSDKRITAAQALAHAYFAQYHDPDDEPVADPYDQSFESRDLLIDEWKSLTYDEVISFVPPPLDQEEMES
- assay.remarks: kinase selectivity panel
- Format: biochemical
- measurement.context: read-out: percentage of control activity (POC), SAPK2a

compound: COc1c(NC(=O)c2ccc(C)c(-c3nnc4c(NCC(C)(C)C)nccn34)c2)cc(C(C)(C)C)cc1NS(C)(=O)=O [compound 7, reference compound]
measure.unit: %
remaining activity at 10 µM: -1

compound: CC(C)(C)N1CCC(c2cc(-c3ccc(F)cc3Cl)c3cc[n+]([O-])c(-c4c(Cl)cccc4Cl)c3n2)CC1
measure.unit: %
remaining activity at 10 µM: -1

compound: CS(=O)(=O)N1CCN(c2ccc(Nc3ncc(C(N)=O)c(NC4CC4)n3)cc2)CC1
measure.unit: %
remaining activity at 10 µM: 89

compound: Cn1cc(-c2cccc(-c3nc(C(=O)NC4C5CC6CC4CC(O)(C6)C5)c(N)nc3N)c2)cn1 (centres unmarked)
measure.unit: %
remaining activity at 10 µM: 91

compound: Cc1ccc(C(=O)NCC2CC2)cc1-c1ccc2c(c1)NC(=O)C21CCCC1
measure.unit: %
remaining activity at 10 µM: -2
